Target: hemagglutinin (HA) of influenza virus H7N3 A/NIBRG/60 (A/mallard/Netherlands/12/00) (influenza A virus)
Experiment: cell-based or functional assay
endpointName: average neutralization titer (nM)
Give just the number in nM; leave the unit off.

Given item MD2313 (bispecific antibody) EVQLVESGGGLVQAGDSLRISCAASGRTLSIYSMGWFRQAPGKEREFVATIGWNSGRTFYPDSLKGRFTISRDNARNTLYLQMNNLRPEDTAVYYCAAAKGPLRLSSQADYWGQGTQVTVSSGGGGSGGGGSEVQLVESGGGLVQAGDSLRISCAASGRTLSIYSMGWFRQAPGKEREFVATIGWNSGRTFYPDSLKGRFTISRDNARNTLYLQMNNLRPEDTAVYYCAAAKGPLRLSSQADYWGQGTQVTVSSGGGGSGGGGSEVQLVESGGGLVQPGGSLRLSCAATGFTLENKAIGWFRQTPGSEREGVLCISKSGSWTYYTDSMRGRFTISRDNAENTVYLQMDSLKPEDTAVYYCATTTAGGGLCWDGTTFSRLASSWGQGTQVTVSS , the value recorded as its average neutralization titer is 6.5
